Consider the following variants and their measured abundance fitness readings.
B1: KAT8 regulatory NSL complex subunit 2, residues 28 to 91; numbered along this chain, Q9H9L4 (parent)
chain: CAFTHRPCSHPRLEGQEFCIKHILEDKNAPFKQCSYISTKNGKRCPNAAPKPEKKDGVSFCAEH

- Variants of: B1
- assay.notes: abundance fitness (aPCA) (normalised: wild type 0, dead -1); higher = more abundant; growth selection in yeast, the domain comes from the species named
- test.settings: Homo sapiens

{"variant.code": "D56K", "abundance fitness": 0.011}
{"variant.code": "Q33C", "abundance fitness": -0.255}
{"variant.code": "C1L", "abundance fitness": -0.886}
{"variant.code": "K27M", "abundance fitness": -0.269}
{"variant.code": "P52C", "abundance fitness": -0.188}
{"variant.code": "I23S", "abundance fitness": -0.156}
{"variant.code": "D26I", "abundance fitness": -0.072}
{"variant.code": "K43I", "abundance fitness": -0.181}
{"variant.code": "N41L", "abundance fitness": -0.09}
{"variant.code": "Q33Y", "abundance fitness": -0.071}
{"variant.code": "S35Q", "abundance fitness": -0.103}
{"variant.code": "C45P", "abundance fitness": -0.561}
{"variant.code": "E14P", "abundance fitness": -0.141}
{"variant.code": "C61F", "abundance fitness": -0.722}
{"variant.code": "K27P", "abundance fitness": -0.091}
{"variant.code": "Q16W", "abundance fitness": -0.226}
{"variant.code": "L13Q", "abundance fitness": -0.176}
{"variant.code": "F18C", "abundance fitness": -0.334}
{"variant.code": "G42V", "abundance fitness": -0.108}
{"variant.code": "N41Y", "abundance fitness": -0.365}
{"variant.code": "R12N", "abundance fitness": -0.279}
{"variant.code": "N41S", "abundance fitness": -0.052}
{"variant.code": "C8I", "abundance fitness": -0.847}
{"variant.code": "H5N", "abundance fitness": -0.212}
{"variant.code": "R12A", "abundance fitness": -0.055}
{"variant.code": "Y36K", "abundance fitness": -0.015}
{"variant.code": "S35P", "abundance fitness": -0.177}
{"variant.code": "A62K", "abundance fitness": 0.095}
{"variant.code": "A62L", "abundance fitness": -0.087}
{"variant.code": "S38H", "abundance fitness": -0.111}
{"variant.code": "K51P", "abundance fitness": -0.109}
{"variant.code": "R6N", "abundance fitness": -0.133}
{"variant.code": "N41W", "abundance fitness": -0.171}
{"variant.code": "P7E", "abundance fitness": -0.063}
{"variant.code": "I37P", "abundance fitness": -0.142}
{"variant.code": "V58G", "abundance fitness": -0.138}
{"variant.code": "Q16L", "abundance fitness": -0.054}
{"variant.code": "V58K", "abundance fitness": -0.037}
{"variant.code": "K51S", "abundance fitness": -0.105}
{"variant.code": "I23K", "abundance fitness": -0.165}
{"variant.code": "P50S", "abundance fitness": -0.104}
{"variant.code": "E17D", "abundance fitness": -0.098}
{"variant.code": "R44G", "abundance fitness": -0.027}
{"variant.code": "S59M", "abundance fitness": -0.084}
{"variant.code": "H5W", "abundance fitness": -0.193}
{"variant.code": "C61M", "abundance fitness": -0.573}
